Tested on: HL-60(TB) leukemia
assay.summary: NCI-60 one-dose screen, 48 h
condition.notes: 10 µM unless noted
This is part of a sample that, as a whole, favours compounds with a hit. Of some 83,000 tested, about 20% had one in any assay. Calls of active or inactive are those of the source. The calls were made as follows: active = growth percent below 10; inactive = the rest.
Possible outcomes: active, inactive

{"columns": ["molecule", "tested.system", "group"],
 "data": [
  ["Clc1cc(Cl)cc(-c2cnc3nonc3n2)c1", "HL-60(TB) leukemia", "inactive"],
  ["COc1cc2ncnc(Nc3ccc(Oc4ccnc(C)c4)c(C)c3)c2cc1NC(=O)CC1CCSS1 (configuration not stated)", "HL-60(TB) leukemia", "active"],
  ["COc1ccc(C/C(C)=C(\\c2ccc(Cl)cc2)c2ccc(OCCN3CCCC3)cc2)cc1", "HL-60(TB) leukemia", "inactive"],
  ["Cn1cc(-c2nonc2-c2cn(C)c3ccc(F)cc23)c2ccccc21", "HL-60(TB) leukemia", "active"],
  ["COc1cc2c(O)n(CCCN3CCOCC3)c3c4cnc5cccc(c(=O)c3c2cc1OC)c54", "HL-60(TB) leukemia", "inactive"],
  ["CC1(O)OC(COc2ccc(Cl)cc2)COC1O (configuration not stated)", "HL-60(TB) leukemia", "inactive"],
  ["COc1cc(/C=C/c2ccc3c(Br)cc(Br)c(O)c3n2)ccc1O", "HL-60(TB) leukemia", "active"],
  ["C=C1C(=O)O[C@H]2[C@H]1CC/C(CNC(=O)/C=C/c1ccc(Cl)cc1Cl)=C\\CC[C@@]1(C)O[C@@H]21", "HL-60(TB) leukemia", "active"],
  ["COc1cccc2nc(Nc3cccc(NC(=O)c4ccc(N5CCN(C)CC5)c(C(F)(F)F)c4)c3)ccc12", "HL-60(TB) leukemia", "inactive"],
  ["CCCCCCNC(=O)Oc1ccc(/C(=C(\\C)c2ccccc2)c2ccc(OCCCN(C)C)cc2)cc1", "HL-60(TB) leukemia", "inactive"],
  ["CC(=O)Nc1c(Cl)cc2c(c1Cl)Cc1ccccc1-2", "HL-60(TB) leukemia", "inactive"],
  ["CCC1C(=O)COC1=O (configuration not stated)", "HL-60(TB) leukemia", "inactive"],
  ["Brc1cccc(-c2cc(-c3ccc4nccnc4c3)[nH]n2)c1", "HL-60(TB) leukemia", "inactive"],
  ["c1ccc(C2Cc3ccccc3C2=NC2CCCCC2)cc1 (configuration not stated)", "HL-60(TB) leukemia", "inactive"],
  ["c1ccc(CCN2CCCCC2Cc2ccccc2)cc1 (configuration not stated)", "HL-60(TB) leukemia", "inactive"],
  ["Cc1ccc2c(c1)=C/C(=C\\c1cc(-c3ccccc3)oc1O)C(=O)N=2", "HL-60(TB) leukemia", "inactive"],
  ["CCN(CC)CC(C)(C)C(=O)/C=C/c1ccccc1", "HL-60(TB) leukemia", "inactive"],
  ["CC/C(=C\\c1ccc(N(C)C)cc1)c1nc2ccccc2c(=O)[nH]1", "HL-60(TB) leukemia", "inactive"],
  ["O=C(NCc1ccc(Cn2c(=O)sn(-c3ccc(Cl)cc3)c2=O)cc1)OCc1ccc2c(Cl)cc(Cl)c(O)c2n1", "HL-60(TB) leukemia", "inactive"],
  ["O=C(NCCNC(=O)Oc1cccc2ccccc12)Oc1cccc2ccccc12", "HL-60(TB) leukemia", "inactive"],
  ["COc1ccc(C(=O)n2nc(-c3ccccc3)nc2N)cc1OC", "HL-60(TB) leukemia", "inactive"],
  ["C/C=C(/C)n1cnc2c(Nc3ccccn3)nc(Cl)nc21", "HL-60(TB) leukemia", "inactive"],
  ["CNC(=O)c1cc(Oc2cccc3nc(Nc4ccc(F)c(Cl)c4)ccc23)ccn1", "HL-60(TB) leukemia", "inactive"],
  ["O=C1CC[C@@H](C(=O)N[C@H]2CSSC[C@@H](C(=O)NCCc3ccccc3)NC(=O)[C@H](Cc3ccccc3)NC(=O)[C@@H]3CCCN3C(=O)[C@@H]3CCCN3C2=O)N1", "HL-60(TB) leukemia", "inactive"],
  ["COc1ccc(-c2cnnn2-c2cc(OC)c3c(c2)OCO3)cc1", "HL-60(TB) leukemia", "active"],
  ["O=c1sn(-c2cccc3ccccc23)c(=O)n1Cc1ccccc1", "HL-60(TB) leukemia", "inactive"],
  ["CCCCCCCCO/N=C\\c1c2c(O)c3c(O)c(C)c4c(c3c1O)C(=O)C(C)(O/C=C\\C(OC)C(C)C(OC(C)=O)C(C)C(O)C(C)C(O)C(C)/C=C\\C=C(\\C)C(=O)N2)O4 (configuration not stated)", "HL-60(TB) leukemia", "active"],
  ["O[C@H]1CO[C@H]2[C@@H]1OC[C@@H]2Oc1ccc(Nc2ccnc(Nc3ccc(O[C@H]4CO[C@H]5[C@@H]4OC[C@@H]5O)c(Cl)c3)n2)cc1Cl", "HL-60(TB) leukemia", "active"],
  ["C=C(C)[C@@H]1CC[C@]2(C(=O)O)CC[C@]3(C)[C@H](CC[C@@H]4[C@@]5(C)C[C@@H](CC#Cc6ccc(Cl)cc6)C(=O)C(C)(C)[C@@H]5CC[C@]43C)[C@@H]12", "HL-60(TB) leukemia", "inactive"],
  ["C=C(c1ccc(OC)c(/C=C/C(=O)c2cc(OC)c(OC)c(OC)c2)c1)c1cc(OC)c(OC)c(OC)c1", "HL-60(TB) leukemia", "inactive"],
  ["NC(=O)CC1(c2ccccc2)CCCCC1", "HL-60(TB) leukemia", "inactive"],
  ["CC1(C)C(=NO)C(C)(C)C1=NO", "HL-60(TB) leukemia", "inactive"]
]}

----------
System: HL-60(TB) leukemia
assay.summary: NCI-60 one-dose screen, 48 h
condition.notes: 10 µM unless noted
Compounds without any hit were thinned out: in the full panel of roughly 83,000, 20% have a hit. Active and inactive are the calls of the source. How the source made its calls: active means growth percent below 10; inactive means the rest.
Possible outcomes: 1 (active), -1 (inactive)

{"columns": ["compound", "tested.system", "group"],
 "data": [
  ["CC1(C)[C@@H](O)CC[C@]2(C)[C@H]3CC[C@@H]4[C@H]5[C@H](C(=O)/C=C/c6ccc(C(F)(F)F)cc6)CC[C@]5(CO)CC[C@@]4(C)[C@]3(C)CC[C@@H]12", "HL-60(TB) leukemia", -1],
  ["CCN(CC)CCSc1ncnc2c1cnn2-c1ccc(S(N)(=O)=O)cc1", "HL-60(TB) leukemia", -1],
  ["C=C1CC[C@@H]2[C@](C)(COC(C)=O)[C@H](OC(C)=O)CC[C@@]2(C)[C@@H]1C/C=C1/C(=O)OC[C@H]1OC(C)=O", "HL-60(TB) leukemia", -1],
  ["O=C(C[Si](CC(=O)c1cccc(C(F)(F)F)c1)CC(=O)c1cccc(C(F)(F)F)c1)c1cccc(C(F)(F)F)c1", "HL-60(TB) leukemia", 1],
  ["COc1ccccc1NC(=O)n1c(=O)cc(C)c2ccc(O)cc21", "HL-60(TB) leukemia", -1],
  ["COC(=O)c1ccc(CSc2nnc(-c3ccncc3)o2)cc1", "HL-60(TB) leukemia", -1],
  ["CN(C)c1ccc2nc3ccc(=[N+](C)C)cc-3oc2c1", "HL-60(TB) leukemia", 1],
  ["CN(CC(=O)N(Cc1ccc(C2CCCCC2)cc1)c1ccc(C(=O)NO)cc1)S(=O)(=O)c1c(F)c(F)c(F)c(F)c1F", "HL-60(TB) leukemia", -1],
  ["N#Cc1c(-c2ccc(Cl)cc2)nc(NN=Cc2cccc(Cl)c2)nc1N1CCOCC1", "HL-60(TB) leukemia", -1],
  ["COc1cc2nccc(Oc3ccc(NC(=O)C4(C(=O)Nc5c(F)cc(F)cc5F)CC4)cc3)c2cc1Oc1ccc(N)cn1", "HL-60(TB) leukemia", -1],
  ["CCN(CC)CCNC(Cc1ccccc1)c1ccc(OCc2ccccc2)cc1 (stereo unspecified)", "HL-60(TB) leukemia", -1],
  ["CCOC(=O)c1sc(NC(=O)COc2ccc(/C=C3\\Cc4ccc(Cl)cc4C3=O)cc2)nc1C", "HL-60(TB) leukemia", -1],
  ["Cc1nc2ccccc2c(/C=C/c2ccc(C(F)(F)F)cc2)c1C(=O)/C=C/c1ccccc1", "HL-60(TB) leukemia", 1],
  ["Cn1nc(C(F)(F)F)cc1-c1cc(Cl)c(OCc2ccc(Cl)cc2)c(-c2ccc(Cl)c(C(F)(F)F)c2)c1O", "HL-60(TB) leukemia", 1],
  ["C[C@H](NC(=O)[C@@H]1CSSC[C@@H](NC(=O)Cc2nc3ccccc3cc2O)C(=O)NCC(=O)N1C)c1ccccc1", "HL-60(TB) leukemia", -1],
  ["O=C(O)C(CCc1ccccc1)NCc1ccccc1 (stereo unspecified)", "HL-60(TB) leukemia", -1],
  ["CC(C)(O)c1cccc(F)c1", "HL-60(TB) leukemia", -1],
  ["NCC(O)C(O)C(O)C(O)CO (stereo unspecified)", "HL-60(TB) leukemia", -1],
  ["Nc1ncnc2c1c(-c1ccc(Oc3ccccc3)cc1)nn2C[C@H]1SSC[C@H]1O", "HL-60(TB) leukemia", 1],
  ["COC[CH2][Hg][C]#[C][Hg][CH2]COC", "HL-60(TB) leukemia", -1],
  ["COc1cc(C2CC(c3ccc(Nc4nc(Nc5ccc(Cl)cc5)nc(Nc5ccc(Cl)cc5)n4)cc3)=NN2C(C)=O)cc(OC)c1OC (stereo unspecified)", "HL-60(TB) leukemia", -1],
  ["Clc1ccc(Nc2nc(Nc3ccccc3)nc(Nc3ccc(-c4cc(-c5ccc(Cl)cc5)on4)cc3)n2)cc1", "HL-60(TB) leukemia", -1],
  ["COc1ccc(C(=O)c2cc(OC)c(OC)c(OC)c2)cc1OC(=O)C(Cl)(Cl)Cl", "HL-60(TB) leukemia", 1],
  ["COc1ccc(Cn2c(Br)c3c(c2-c2cc(OC)c(OC)c(OC)c2)CCc2sc(N)nc2-3)cc1", "HL-60(TB) leukemia", 1],
  ["CCCCCCC(C)N(CC(C)(C)O)C(=O)c1ccc([N+](=O)[O-])cc1 (stereo unspecified)", "HL-60(TB) leukemia", -1],
  ["CCOC(=O)c1cc(C(=O)c2ccc(O)c(O)c2)n2ccc(-c3ccn4c(C(=O)c5ccc(O)c(O)c5)cc(C(=O)OCC)c4c3)cc12", "HL-60(TB) leukemia", -1],
  ["CCOC(=O)C1=C(C)N2C(=NC3=C(CCCC/C3=C\\c3ccccc3)C2c2ccccc2)S1 (stereo unspecified)", "HL-60(TB) leukemia", -1],
  ["C=CC[C@]1(O)CC[C@H]2[C@@H]3CCc4cc(O)ccc4[C@H]3CC[C@@]21C", "HL-60(TB) leukemia", -1],
  ["O=C1NC(=C(Cl)Cl)/C(=N\\S(=O)(=O)NCc2ccccc2)N1", "HL-60(TB) leukemia", -1],
  ["COc1ccc(-c2cc3cnc4ccccc4c3oc2=O)cc1", "HL-60(TB) leukemia", -1],
  ["O=C(CSc1nc(-c2ccccc2)cc(=O)[nH]1)Nc1nc(-c2ccccc2)cs1", "HL-60(TB) leukemia", -1]
]}
